- target system: T1, hK1 (human tissue kallikrein 1), recombinant (human, UniProt P06870 25-262)
- T1 construct: Expressed in P. pastoris from KLK1 cDNA and purified; enzymatically active; also called KLK1; Recombinant (Pichia) Kallikrein
- assay summary: SPR
kon overview
Numeric answer only, unit M⁻¹ s⁻¹ assumed.

Below: 3 binders and their reported kon.
binder	kon [M⁻¹ s⁻¹]
M0121-A07 (Fab, V domains shown) VH: EVQLLESGGGLVQPGGSLRLSCAASGFTFSHYLMYWVRQAPGKGLEWVSRIYPSGGATSYADSVKGRFTISRDNSKNTLYLQMNSLRAEDTAVYYCAKSGSWYSFDYWGQGTLVTVSS VL: DIQMTQSPGTLSLSPGERATLSCRASQSVSSNYLAWYQQKPGQAPRLLMYGASYRATGIPDRFSGSGSGTDFTLTISSLQPEDFATYYCQQSYSTPWTFGQGTKVEIKR	922000
M0108-E11 (Fab, V domains shown) VH: EVQLLESGGGLVQPGGSLRLSCAASGFTFSNYSMMWVRQAPGKGLEWVSSIYPSGGFTKYADSVKGRFTISRDNSKNTLYLQMNSLRAEDTAVYYCARVGFYGGFVWGQGTTVTVSS VL: AQYELTQPASVSGSPGQSITISCTATSSDLGSYNFVSWYQQHPDKAPKLMIFEVSRRPSGVSNRFSGSKSGNTASLTISGLQAEDEADYYCCSYAGSNTYVFGTGTKVTVLG	418000
M0108-E10 (Fab, V domains shown) VH: EVQLLESGGGLVQPGGSLRLSCAASGFTFSRYRMVWVRQAPGKGLEWVSSIYPSGGYTKYADSVKGRFTISRDNSKNTLYLQMNSLRAEDTAVYYCARVITYNNFDSWGQGTLVTVSS VL: DIQMTQSPGTLSLSPGERATLSCRASQTVSSTYLAWYQQKPGQAPRLLIYGASSRATGIPDRFSGGGSGTDFTLTISRLEPEDFAVYYCQQYGSSPPRYTFGQGTKLEIKR	230000

Can you share its kon? I mean this binder: M0099-D05 (Fab, V domains shown) VH: EVQLLESGGGLVQPGGSLRLSCAASGFTFSNYIMSWVRQAPGKGLEWVSSIWPSGGHTRYADSVKGRFTISRDNSKNTLYLQMNSLRAEDTAVYYCARAGSYYAGDYWGQGTLVTVSS VL: DIQMTQSPGTLSLSPGERATLSCRASQTVSSNYLAWYQQKPGLAPRLLIYGVSNRAAGIPDRFSGRGSGTDFTLIINRLEPEDFAVYYCQHYGSSAFTFGRGTKLEIER
331000

Follow-up item: M0131-G06 (Fab, V domains shown) VH: EVQLLESGGGLVQPGGSLRLSCAASGFTFSSYAMTWVRQAPGKGLEWVSSISSSGGDTAYADSVKGRFTISRDNSKNTLYLQMNSLRAEDTAVYYCATERHYIWGSYRYSWFDPWGQGTLVTVSS VL: AQYELTQAPSASGTPGQRVTISCSGSRSNIGTNPVNWYQHVPGTAPKLLILVNNQRPSGVPDRFSGSKSGASASLAISGLQSEDEAEYYCATWDGSLNGPVFGGGTKLTVLR
70300
